- TARGET ENTITY: Chk2 (Homo sapiens)
- Sequence (O96017 whole entry): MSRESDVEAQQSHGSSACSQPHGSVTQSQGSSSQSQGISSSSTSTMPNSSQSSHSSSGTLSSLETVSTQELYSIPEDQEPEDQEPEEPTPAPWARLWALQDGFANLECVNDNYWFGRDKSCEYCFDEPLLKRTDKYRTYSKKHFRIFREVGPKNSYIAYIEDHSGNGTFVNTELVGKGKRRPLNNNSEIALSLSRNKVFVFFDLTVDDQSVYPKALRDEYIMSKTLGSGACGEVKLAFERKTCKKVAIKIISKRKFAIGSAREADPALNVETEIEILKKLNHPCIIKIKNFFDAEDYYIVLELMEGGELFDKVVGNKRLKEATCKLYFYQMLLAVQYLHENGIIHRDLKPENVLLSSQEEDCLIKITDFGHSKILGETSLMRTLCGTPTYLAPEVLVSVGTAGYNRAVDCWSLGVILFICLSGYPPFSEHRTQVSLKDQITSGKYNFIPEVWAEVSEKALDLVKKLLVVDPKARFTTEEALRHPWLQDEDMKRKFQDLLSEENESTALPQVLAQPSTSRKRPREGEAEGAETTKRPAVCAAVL
- EXPERIMENT: IMAP Chk2 high-throughput screening assay (fluorescence polarization)
- Assay type: biochemical
- DETAILS: IMAP assay, fluorescein-labeled peptide substrate; read-out: EC50 (Chk2 inhibition)
pEC50: −log10 of the molar value.
Measured pEC50 of individual entries

Below: 2 compounds and their reported pEC50.
C/C(=N\O)c1ccc2c(c1)C(=NO)c1cc(/C(C)=N/O)ccc1-2 :: ~5.40
C/C(=N\NC(=N)N)c1ccc(NC(=O)Nc2ccc(/C(C)=N/NC(=N)N)cc2)cc1 :: 7.29

Just so you know, measured pEC50 for C/C(=N\O)c1ccc2c(c1)C(=NO)c1ccccc1-2 came out at 5.42 to 6.22

Just so you know, measured pEC50 for CCN(CC)CCCNc1ccc2nc(C)n3c4ccc(O)cc4c(=O)c1c23 came out at ~4.70
